System: Shigella flexneri
measurement-protocol: growth AUC normalised to DMSO control (fraction of control); higher = less growth inhibition, active = hit call of the paper
condition-description: 20 µM
Structures can show the parent of a compound that is named as a salt.
recorded-metric: growth AUC normalised to DMSO control
Give bare numbers.

compound | experimental-system | growth AUC normalised to DMSO control
NS(=O)(=O)c1cc2c(cc1Cl)NC(C(Cl)Cl)NS2(=O)=O (stereo not drawn) [Trichlormethiazide] | Shigella flexneri | 1.04
CN1CCN(CC(=O)N2c3ccccc3C(=O)Nc3cccnc32)CC1 [Pirenzepine dihydrochloride] | Shigella flexneri | 1
CN/C(=N\CCSCc1nc[nH]c1C)NC#N | Shigella flexneri | 0.992

Would you be so kind as to report growth AUC normalised to DMSO control for each listed record?
1. Cc1c(N(C)C)c(=O)n(-c2ccccc2)n1C
2. CCCOc1cc(N)ccc1C(=O)OCCN(CC)CC [Propoxycaine hydrochloride]
3. CCC(NC(C)C)C(O)c1ccc(O)c(O)c1 (stereo not drawn) [Isoetharine mesylate salt]

Solution:
1.03
1.04
1

// for each compound in input: emit growth AUC normalised to DMSO control
1. CC(C)Cc1ccc([C@H](C)C(=O)O)cc1 [(S,+) Ibuprofen]
2. O=C(Cn1ccnc1[N+](=O)[O-])NCCO
3. NC(=O)c1cc[n+](CC2=C(C(=O)[O-])N3C(=O)[C@@H](NC(=O)[C@@H](c4ccccc4)S(=O)(=O)O)[C@H]3SC2)cc1 [Cefsulodin sodium salt]
4. CN(C)CCOC(C)(c1ccccc1)c1ccccn1 (stereo not drawn) [Doxylamine succinate]

Solution:
[0.968, 1.03, 0.999, 1.01]

Kindly give each listed record's growth AUC normalised to DMSO control.
1. COc1ccc(/C=C/C(=O)Nc2ccccc2C(=O)O)cc1OC
2. COc1ccc([C@@H]2Sc3ccccc3N(CCN(C)C)C(=O)[C@@H]2OC(C)=O)cc1 [Diltiazem hydrochloride]
3. CC(C(=O)O)c1ccc(N2Cc3ccccc3C2=O)cc1 (stereo not drawn)
4. CCCC(CCC)C(=O)O

Solution:
0.973
0.969
1.01
1.02

Hi, could you look up growth AUC normalised to DMSO control for each item in my list?
1. C[C@H](CCC(=O)O)[C@H]1CC[C@H]2[C@@H]3CC[C@@H]4C[C@H](O)CC[C@]4(C)[C@H]3CC[C@]12C
2. CNCCCC12CCC(c3ccccc31)c1ccccc12 [Maprotiline hydrochloride]

Solution:
[1.02, 0.999]

Look up growth AUC normalised to DMSO control for the entries below, preserving their order.
1. NCC[C@H](O)C(=O)N[C@@H]1C[C@H](N)[C@@H](O[C@H]2O[C@H](CN)[C@@H](O)[C@H](O)[C@H]2O)[C@H](O)[C@H]1O[C@H]1O[C@H](CO)[C@@H](O)[C@H](N)[C@H]1O [Amikacin hydrate]
2. CCC(Cc1c(I)cc(I)c(N)c1I)C(=O)O (stereo not drawn)

Solution:
0.985
1.01

###

Tested on: P. vulgatus WT;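 note: active when median AUC fell below 0.1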
measurement-protocol: growth AUC normalised to DMSO control (median) (fraction of control); higher = less growth inhibition, active = hit call of the paper
condition-description: 20 µM
Counter-ions that a name gives are not always drawn.
Respond with a class label; see active, inactive

Exercise: I'd appreciate the recorded outcome for "Clc1ccccc1C(c1ccccc1)(c1ccccc1)n1ccnc1" from this test.
Solution: inactive

Exercise: What about this compound? NC(=O)c1cc[n+](CC2=C(C(=O)[O-])N3C(=O)[C@@H](NC(=O)[C@@H](c4ccccc4)S(=O)(=O)O)[C@H]3SC2)cc1 [Cefsulodin sodium salt]
Solution: inactive

Exercise: Moving on to the next compound: "C[C@]12CC[C@@H]3c4ccc(O)cc4CC[C@H]3[C@@H]1C[C@@H](O)[C@@H]2O"
Solution: inactive

All figures here come from the supplement of paper PMC12350171.
